Entries and their fraction unbound
Experiment: Protein binding in plasma by equilibrium dialysis assay
Format: ADME, cell-free
Settings: read-out: PPB (converted)

cpd_smiles=Nc1noc2ccc(-n3nc(C(F)(F)F)c4c3C(=O)N(c3ccc(-c5ccccc5CN5CC[C@@H](O)C5)cc3F)CC4)cc12 observed_property="fraction unbound" result="< 0.02"
cpd_smiles=Nc1noc2ccc(-n3nc(C(F)(F)F)c4c3C(=O)N(c3ccc(-c5ccccc5CN5CC[C@@H](O)C5)cc3)CC4)cc12 observed_property="fraction unbound" result=0.026
cpd_smiles=Nc1noc2ccc(-n3nc(C(F)(F)F)c4c3C(=O)N(c3ccc(-c5ccccc5CN5CCCC5)cc3F)CC4)cc12 observed_property="fraction unbound" result="< 0.02"

Look at this molecule and give its reported fraction unbound. CN(C)Cc1ccccc1-c1ccc(N2CCc3c(C(F)(F)F)nn(-c4ccc5onc(N)c5c4)c3C2=O)c(F)c1
< 0.02
